Test system: Acinetobacter baumannii
TEST: Antibacterial activity against multidrug-resistant Acinetobacter baumannii assessed as bacterial growth inhibition by broth microdilution assay
Format: functional
READOUT_NAME: MIC (µg/mL)
Give bare numbers, in µg/mL.

CC(C)C[C@@H]1NC(=O)[C@@H](Cc2ccccc2)NC(=O)[C@H](CCN)NC(=O)[C@@H](NC(=O)[C@H](CN)NC(=O)[C@@H](NC(=O)[C@H](N)CSSCc2cccc(Cl)c2)[C@@H](C)O)CCNC(=O)[C@H]([C@@H](C)O)NC(=O)[C@H](CCN)NC(=O)[C@H](CCN)NC1=O	8

For every record below, what is its MIC?
1. CC(C)C[C@@H]1NC(=O)[C@@H](Cc2ccccc2)NC(=O)[C@H](CCN)NC(=O)[C@@H](NC(=O)[C@H](CCN)NC(=O)[C@@H](NC(=O)[C@H](N)CSSCc2cccc(Cl)c2)[C@@H](C)O)CCNC(=O)[C@H]([C@@H](C)O)NC(=O)[C@H](CCN)NC(=O)[C@H](CCN)NC1=O
2. CC(C)C[C@@H]1NC(=O)[C@@H](Cc2ccccc2)NC(=O)[C@H](CCN)NC(=O)[C@@H](NC(=O)[C@H](CN)NC(=O)[C@@H](NC(=O)[C@H](N)CSSCCC2CCCCC2)[C@@H](C)O)CCNC(=O)[C@H]([C@@H](C)O)NC(=O)[C@H](CCN)NC(=O)[C@H](CCN)NC1=O
3. CC(C)C[C@@H]1NC(=O)[C@@H](Cc2ccccc2)NC(=O)[C@H](CCN)NC(=O)[C@@H](NC(=O)[C@@H](CO)NC(=O)[C@@H](NC(=O)[C@H](N)CSSCCC2CCCCC2)[C@@H](C)O)CCNC(=O)[C@H]([C@@H](C)O)NC(=O)[C@H](CCN)NC(=O)[C@H](CCN)NC1=O

Result:
1. 4
2. 1
3. 1

Query: Requested field: MIC. Item: CC(C)CCSSC[C@@H](N)C(=O)N[C@H](C(=O)NCC(=O)N[C@H]1CCNC(=O)[C@H]([C@@H](C)O)NC(=O)[C@H](CCN)NC(=O)[C@H](CCN)NC(=O)[C@H](CC(C)C)NC(=O)[C@@H](Cc2ccccc2)NC(=O)[C@H](CCN)NC1=O)[C@@H](C)O
Result: 0.5

---

Test system: Acinetobacter baumannii
TEST: Antibacterial activity against multidrug-resistant Acinetobacter baumannii assessed as bacterial growth inhibition by broth microdilution assay
Assay type: functional
Positions of bridges follow the written chain, without caps; N, C: chain ends. Non-standard residues stand in square brackets, D forms with d. Residues, ends and D or L forms follow the SMILES beside them. *: point of attachment. X1 = CC[C@H](C)CCCCC(=O)*; Dab = NCC[C@H](N)C(=O)O
READOUT_NAME: MIC (µg/mL)
Numbers only, in µg/mL.

CC[C@H](C)CCCCC(=O)N[C@@H](CCN)C(=O)N[C@H](C(=O)N[C@@H](CCN)C(=O)N[C@H]1CCNC(=O)[C@H]([C@@H](C)O)NC(=O)[C@H](CCN)NC(=O)[C@H](CCN)NC(=O)[C@H](CC(C)C)NC(=O)[C@@H](Cc2ccccc2)NC(=O)[C@H](CCN)NC1=O)[C@@H](C)O (X1-[Dab]T[Dab][Dab][Dab][dF]L[Dab][Dab]T; lactam 4-C)	0.5
CC(C)C[C@@H]1NC(=O)[C@@H](Cc2ccccc2)NC(=O)[C@H](CCN)NC(=O)[C@@H](NC(=O)[C@@H](CO)NC(=O)[C@@H](NC(=O)[C@H](N)CSSCc2cccc(Cl)c2)[C@@H](C)O)CCNC(=O)[C@H]([C@@H](C)O)NC(=O)[C@H](CCN)NC(=O)[C@H](CCN)NC1=O	0.5
CC(C)CCSSC[C@@H](N)C(=O)N[C@H](C(=O)N[C@@H](CCN)C(=O)N[C@H]1CCNC(=O)[C@H]([C@@H](C)O)NC(=O)[C@H](CCN)NC(=O)[C@H](CCN)NC(=O)[C@H](CC(C)C)NC(=O)[C@@H](Cc2ccccc2)NC(=O)[C@H](CCN)NC1=O)[C@@H](C)O	1

Continue with the compound presented below.
Query: Requested field: MIC. Item: CC(C)CCSSC[C@@H](N)C(=O)N[C@H](C(=O)N[C@@H](CN)C(=O)N[C@H]1CCNC(=O)[C@H]([C@@H](C)O)NC(=O)[C@H](CCN)NC(=O)[C@H](CCN)NC(=O)[C@H](CC(C)C)NC(=O)[C@@H](Cc2ccccc2)NC(=O)[C@H](CCN)NC1=O)[C@@H](C)O
Result: 0.25
